Entries and their measured pest or weed control at 125 g/ha follow.
Test system: pigweed (Amaranthus retroflexus)
EXPERIMENT: Test A preemergence
Assay type: in vivo
CONDITION CONTEXT: Amaranthus retroflexus, pre-emergence, 240 h, 125 g ai/ha, preemergence; 0 to 100 scale where 0 is no effect and 100 is complete control; approx. 10 d; read-out: Pigweed plant response rating

SMI: CN1CC[C@H](c2ccc3c(c2)OC(F)(F)O3)[C@@H](C(=O)Nc2cccc(Cl)c2F)C1=O
pest or weed control at 125 g/ha / %: 0
//
SMI: C=C(C)c1cccc([C@H]2CN(C)C(=O)[C@@H]2C(=O)Nc2cccc(F)c2C)c1
pest or weed control at 125 g/ha / %: 0
//
SMI: Cc1cc([C@H]2CN(C)C(=O)[C@@H]2C(=O)Nc2ccc(F)c(F)c2F)ccc1Br
pest or weed control at 125 g/ha / %: 0
//
SMI: CN1C[C@H](c2cc(C(F)F)cs2)[C@@H](C(=O)Nc2ccccc2F)C1=O
pest or weed control at 125 g/ha / %: 0

----------
Entries and their measured pest or weed control at 125 g/ha follow.
System: pigweed (Amaranthus retroflexus)
EXPERIMENT: Test A postemergence
Type: in vivo
CONDITION CONTEXT: Amaranthus retroflexus, post-emergence, 240 h, 125 g ai/ha, postemergence; visual injury on 0 to 100 scale (0 no effect, 100 complete control), approx. 10 d; read-out: Pigweed plant response rating

SMI: CON1CC[C@H](c2ccc(C(F)(F)F)cc2)[C@@H](C(=O)Nc2ccc(F)c(F)c2F)C1=O
TARGET SYSTEM: pigweed (Amaranthus retroflexus)
RESULT UNIT: %
pest or weed control at 125 g/ha: 0
--
SMI: Cc1ccc([C@H]2CNC(=O)[C@@H]2C(=O)Nc2cccc(F)c2F)cc1C
TARGET SYSTEM: pigweed (Amaranthus retroflexus)
RESULT UNIT: %
pest or weed control at 125 g/ha: 0
--
SMI: CSc1ccccc1NC(=O)[C@H]1C(=O)N(C)C[C@@H]1c1ccc(C(F)(F)F)cn1
TARGET SYSTEM: pigweed (Amaranthus retroflexus)
RESULT UNIT: %
pest or weed control at 125 g/ha: 0
--
SMI: O=C1NC[C@H](c2ccc3c(c2)OCO3)[C@H]1C(=O)Nc1ccc(F)c(F)c1F
TARGET SYSTEM: pigweed (Amaranthus retroflexus)
RESULT UNIT: %
pest or weed control at 125 g/ha: 0
--
SMI: Cc1ccncc1NC(=O)[C@H]1C(=O)N(C)C[C@@H]1c1ccc(C(F)(F)F)cc1
TARGET SYSTEM: pigweed (Amaranthus retroflexus)
RESULT UNIT: %
pest or weed control at 125 g/ha: 0
--
SMI: CN1C[C@H](c2ccc(C(F)(F)F)cn2)[C@@H](C(=O)Nc2ccc(F)c(F)c2F)C1=O
TARGET SYSTEM: pigweed (Amaranthus retroflexus)
RESULT UNIT: %
pest or weed control at 125 g/ha: 20
--
SMI: CN1C[C@H](c2cc(F)cc(F)c2)[C@@H](C(=O)Nc2cnccc2Cl)C1=O
TARGET SYSTEM: pigweed (Amaranthus retroflexus)
RESULT UNIT: %
pest or weed control at 125 g/ha: 0
--
SMI: Cc1cc([C@H]2CNC(=O)[C@@H]2C(=O)Nc2ccccc2Cl)ccc1C(F)(F)F
TARGET SYSTEM: pigweed (Amaranthus retroflexus)
RESULT UNIT: %
pest or weed control at 125 g/ha: 30
--
SMI: Cc1cc([C@H]2CN(C)C(=O)[C@@H]2C(=O)Nc2ccc(F)c(F)c2F)ccc1Br
TARGET SYSTEM: pigweed (Amaranthus retroflexus)
RESULT UNIT: %
pest or weed control at 125 g/ha: 30

----------
Tested on: barnyardgrass (Echinochloa crus-galli)
EXPERIMENT: Test G Pre-Emergence Protocol
Assay type: in vivo
CONDITION CONTEXT: Echinochloa crus-galli, pre-emergence, 312 h, 15.625 g ai/ha, evaluated after 13 days, read-out: Barnyard grass damage rating (100=total damage to plant; 0=no damage to plant)
Entries and their measured pest or weed control at 15.625 g/ha follow.
PROPERTY LABEL: pest or weed control at 15.625 g/ha (%)

COMPOUND: C[C@@]1(C(=O)Nc2cccc(F)c2F)C(=O)NC[C@@H]1c1ccc(C(F)(F)F)cc1 (racemic)
PROPERTY LABEL: pest or weed control at 15.625 g/ha
MEAS VALUE: 0

COMPOUND: COc1cc([C@@H]2CN(C)C(=O)[C@H]2C(=O)Nc2cccc(F)c2F)ccc1Cl (racemic)
PROPERTY LABEL: pest or weed control at 15.625 g/ha
MEAS VALUE: 10

COMPOUND: CN1C[C@H](c2ccc(C(C)(C)C#N)cc2)[C@@H](C(=O)Nc2ccccc2F)C1=O (racemic)
PROPERTY LABEL: pest or weed control at 15.625 g/ha
MEAS VALUE: 0

COMPOUND: CN1C[C@H](c2ccc(C(F)(F)F)cc2)[C@@H](C(=O)Nc2ncccc2C#N)C1=O (racemic)
PROPERTY LABEL: pest or weed control at 15.625 g/ha
MEAS VALUE: 0

COMPOUND: CN1C[C@@H](c2ccc(C(F)(F)F)nc2)[C@H](C(=O)Nc2cccc(F)c2F)C1=O (racemic)
PROPERTY LABEL: pest or weed control at 15.625 g/ha
MEAS VALUE: 20

COMPOUND: CN1C[C@@H](c2ccc(C(F)(F)F)nc2)[C@H](C(=O)Nc2ccccc2S(C)(=O)=O)C1=O (racemic)
PROPERTY LABEL: pest or weed control at 15.625 g/ha
MEAS VALUE: 0

COMPOUND: CN1C[C@H](c2ccc(C(F)(F)F)cc2)[C@@H](C(=O)NC2=NOC(C)(C)C2)C1=O (racemic)
PROPERTY LABEL: pest or weed control at 15.625 g/ha
MEAS VALUE: 0

COMPOUND: Cc1cc(NC(=O)[C@@H]2C(=O)N(C)C[C@H]2c2ccc(C(F)(F)F)cc2)[nH]n1 (racemic)
PROPERTY LABEL: pest or weed control at 15.625 g/ha
MEAS VALUE: 0

COMPOUND: CN1C[C@@H](c2ccc(C(F)(F)F)cc2)[C@H](C(=O)Nc2ccccc2C#N)C1=O (racemic)
PROPERTY LABEL: pest or weed control at 15.625 g/ha
MEAS VALUE: 0

COMPOUND: CN1C[C@@H](c2cnc(Cl)c(F)c2)[C@H](C(=O)Nc2cccc(F)c2F)C1=O (racemic)
PROPERTY LABEL: pest or weed control at 15.625 g/ha
MEAS VALUE: 30

COMPOUND: CN1C[C@@H](c2ccc(C(F)(F)F)cc2)[C@H](C(=O)Nc2cc(O)nc(C(F)(F)F)n2)C1=O (racemic)
PROPERTY LABEL: pest or weed control at 15.625 g/ha
MEAS VALUE: 0

COMPOUND: CN1C[C@H](c2ccc(C(F)F)cc2)[C@@H](C(=O)Nc2ccccc2F)C1=O (racemic)
PROPERTY LABEL: pest or weed control at 15.625 g/ha
MEAS VALUE: 20

COMPOUND: CN1C[C@@H](c2ccc(C(F)(F)F)cc2)[C@H](C(=O)Nc2cccc(C(F)(F)F)c2[N+](=O)[O-])C1=O (racemic)
PROPERTY LABEL: pest or weed control at 15.625 g/ha
MEAS VALUE: 0

COMPOUND: COc1c(Cl)ccc([C@H]2CNC(=O)[C@@H]2C(=O)Nc2cccc(F)c2F)c1F (racemic)
PROPERTY LABEL: pest or weed control at 15.625 g/ha
MEAS VALUE: 10

COMPOUND: CN1C[C@H](c2ccc(Cl)cc2)[C@@H](C(=O)Nc2cccc(F)n2)C1=O
PROPERTY LABEL: pest or weed control at 15.625 g/ha
MEAS VALUE: 0

COMPOUND: CC(C)c1cc(NC(=O)[C@@H]2C(=O)N(C)C[C@H]2c2ccc(C(F)(F)F)cc2)[nH]n1 (racemic)
PROPERTY LABEL: pest or weed control at 15.625 g/ha
MEAS VALUE: 0

COMPOUND: Cc1c(Cl)ncnc1NC(=O)[C@@H]1C(=O)N(C)C[C@H]1c1ccc(C(F)(F)F)cc1 (racemic)
PROPERTY LABEL: pest or weed control at 15.625 g/ha
MEAS VALUE: 0

COMPOUND: COc1c(Cl)cccc1NC(=O)[C@H]1C(=O)N(C)C[C@@H]1c1ccc(C(F)(F)F)cc1 (racemic)
PROPERTY LABEL: pest or weed control at 15.625 g/ha
MEAS VALUE: 0

COMPOUND: Cc1nc(NC(=O)[C@@H]2C(=O)N(C)C[C@H]2c2ccc(C(F)(F)F)cc2)ccc1F (racemic)
PROPERTY LABEL: pest or weed control at 15.625 g/ha
MEAS VALUE: 0

COMPOUND: C=Cc1ccc([C@H]2CN(C)C(=O)[C@@H]2C(=O)Nc2ccccc2F)cc1 (racemic)
PROPERTY LABEL: pest or weed control at 15.625 g/ha
MEAS VALUE: 0

COMPOUND: CN1C[C@@H](c2ccc(C(F)(F)F)cc2)[C@H](C(=O)Nc2cnccc2C(F)(F)F)C1=O (racemic)
PROPERTY LABEL: pest or weed control at 15.625 g/ha
MEAS VALUE: 20

COMPOUND: CN1C[C@@H](c2ccc(C(F)(F)F)cc2)[C@H](C(=O)Nc2nccc(=O)[nH]2)C1=O (racemic)
PROPERTY LABEL: pest or weed control at 15.625 g/ha
MEAS VALUE: 0

COMPOUND: CN1C[C@@H](c2ccc(C(F)(F)F)nc2)[C@H](C(=O)Nc2cccc(F)n2)C1=O (racemic)
PROPERTY LABEL: pest or weed control at 15.625 g/ha
MEAS VALUE: 0

COMPOUND: CCc1nccc(NC(=O)[C@@H]2C(=O)N(C)C[C@H]2c2ccc(C(F)(F)F)cc2)c1Cl (racemic)
PROPERTY LABEL: pest or weed control at 15.625 g/ha
MEAS VALUE: 0

COMPOUND: CN1C[C@@H](c2ccc(C(F)(F)F)cc2)[C@H](C(=O)Nc2ncc(Cl)s2)C1=O (racemic)
PROPERTY LABEL: pest or weed control at 15.625 g/ha
MEAS VALUE: 0

COMPOUND: CN1C[C@@H](c2ccc(C(F)(F)F)cc2)[C@H](C(=O)Nc2cccnc2Cl)C1=O (racemic)
PROPERTY LABEL: pest or weed control at 15.625 g/ha
MEAS VALUE: 0

COMPOUND: Cc1c(Br)cccc1NC(=O)[C@@H]1C(=O)N(C)C[C@H]1c1ccc(C(F)(F)F)cc1 (racemic)
PROPERTY LABEL: pest or weed control at 15.625 g/ha
MEAS VALUE: 0

COMPOUND: CN1C[C@@H](c2ccc(C(F)(F)F)cc2)[C@H](C(=O)Nc2cccc(F)c2C#N)C1=O (racemic)
PROPERTY LABEL: pest or weed control at 15.625 g/ha
MEAS VALUE: 20
